# measurement protocol: self-splicing fitness, log relative to wild type (ln ratio); higher = more splicing; Tetrahymena group I intron in knt gene, E. coli kanamycin selection, DiMSum; sequences stand for … in CUCUCU…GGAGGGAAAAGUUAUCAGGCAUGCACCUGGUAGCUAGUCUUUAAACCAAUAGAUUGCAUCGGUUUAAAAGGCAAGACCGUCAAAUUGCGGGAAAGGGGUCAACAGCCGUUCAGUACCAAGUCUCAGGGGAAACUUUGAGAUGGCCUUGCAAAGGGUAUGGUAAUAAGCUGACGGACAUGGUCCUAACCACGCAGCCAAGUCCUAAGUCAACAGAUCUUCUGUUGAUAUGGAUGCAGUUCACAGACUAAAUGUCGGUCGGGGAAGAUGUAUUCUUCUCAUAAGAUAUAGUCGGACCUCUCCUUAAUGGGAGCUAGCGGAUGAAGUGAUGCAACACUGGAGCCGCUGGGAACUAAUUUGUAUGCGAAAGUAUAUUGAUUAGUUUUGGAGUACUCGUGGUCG;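 also: selection with 25 µg/mL kanamycin versus none on LB agar overnight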
# condition info: 37 °C
Threshold check on self-splicing fitness (ln): at or above -0.3 gives t, strictly below gives f.

Check the entry AACAAGCAAUAUUACGGGAA : does self-splicing fitness (ln) equal or exceed -0.3?
f

Item UUGAAGCAAUAUUACGUUGA with self-splicing fitness (ln) of -0.3 or above?
f

Confirm if self-splicing fitness (ln) reported for the sequence GAGUAGCAAUAUUACGUGCG is -0.3 or above.
t

Does the sequence AAGGAGCAAUAUUACGCACG have recorded self-splicing fitness (ln) that is -0.3 or more?
t

Tell me whether self-splicing fitness (ln) is at least -0.3 here: AAAGAGCAAUAUUACGGACU
f

Assess whether reported self-splicing fitness (ln) for UCUUAGCAAUAUUACGAAGG sits at -0.3 or higher.
t

Hello, I need to know if CUCCAGCAAUAUUACGACUA has measured self-splicing fitness (ln) not below -0.3. Thanks!
f

In plain terms: is recorded self-splicing fitness (ln) at least -0.3 for UCAUAGCAAUAUUACGCUCG ?
t

----------
# measurement protocol: self-splicing fitness, log relative to wild type (ln ratio); higher = more splicing; Tetrahymena group I intron in knt gene, E. coli kanamycin selection, DiMSum; sequences stand for … in CUCUCU…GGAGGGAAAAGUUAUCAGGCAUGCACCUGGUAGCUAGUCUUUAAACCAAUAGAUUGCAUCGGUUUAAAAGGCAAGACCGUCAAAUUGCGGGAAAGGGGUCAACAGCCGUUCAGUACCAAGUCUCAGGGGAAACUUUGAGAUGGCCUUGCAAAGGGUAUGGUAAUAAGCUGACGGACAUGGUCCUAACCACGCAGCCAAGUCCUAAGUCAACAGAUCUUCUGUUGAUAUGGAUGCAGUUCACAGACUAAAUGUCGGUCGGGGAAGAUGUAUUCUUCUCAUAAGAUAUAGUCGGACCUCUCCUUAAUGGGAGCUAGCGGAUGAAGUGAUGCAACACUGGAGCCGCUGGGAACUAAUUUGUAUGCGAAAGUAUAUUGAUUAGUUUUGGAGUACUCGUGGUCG
# condition info: 30 °C
Label scheme for self-splicing fitness (ln): lower than -1 is N, -1 and above is Y.

Is reported self-splicing fitness (ln) greater than or equal to -1 here: GACAAGCAAUAUUACGUAAU
N

Given the entry UGAAAGCAAUAUUACGUCCG , answer whether its self-splicing fitness (ln) meets or surpasses -1.
Y

Tell me whether self-splicing fitness (ln) is at least -1 here: UGACAGCAAUAUUACGAUCA
Y

# check: self-splicing fitness (ln) of UUGUAGCAAUAUUACGACAC is greater than or equal to -1
N

Check the entry CAGCAGCAAUAUUACGUGGU : does self-splicing fitness (ln) equal or exceed -1?
N

Does the reported self-splicing fitness (ln) for AUGCAGCAAUAUUACGCUCU fall at or above the -1 mark?
N

Please check the record CCGUAGCAAUAUUACGGGUU and state if its self-splicing fitness (ln) is at or above -1.
N

Please indicate if the recorded self-splicing fitness (ln) for CUUGAGCAAUAUUACGCCGG meets or exceeds -1.
N

API: above_or_equal(metric=self-splicing fitness (ln), cutoff=-1) for item UUCUAGCAAUAUUACGGUUA
N

Threshold query (self-splicing fitness (ln) >= -1) on UUAGAGCAAUAUUACGUUGU
N

Dear colleague, could you confirm whether GGUUAGCAAUAUUACGGCAA has self-splicing fitness (ln) at or above -1?
Y

Is self-splicing fitness (ln) for CCGAAGCAAUAUUACGUGUU at or above -1?
N

Answer whether self-splicing fitness (ln) of AGGGAGCAAUAUUACGCAGU is greater than or equal to -1.
N

API: above_or_equal(metric=self-splicing fitness (ln), cutoff=-1) for item UCGAAGCAAUAUUACGCUGA
N

# check: self-splicing fitness (ln) of AUGCAGCAAUAUUACGCAAG is greater than or equal to -1
N

Hi, just wondering whether UUACAGCAAUAUUACGCCGA shows self-splicing fitness (ln) of -1 or higher.
N

----------
# measurement protocol: self-splicing fitness, log relative to wild type (ln ratio); higher = more splicing; Tetrahymena group I intron in knt gene, E. coli kanamycin selection, DiMSum; sequences stand for … in CUCUCU…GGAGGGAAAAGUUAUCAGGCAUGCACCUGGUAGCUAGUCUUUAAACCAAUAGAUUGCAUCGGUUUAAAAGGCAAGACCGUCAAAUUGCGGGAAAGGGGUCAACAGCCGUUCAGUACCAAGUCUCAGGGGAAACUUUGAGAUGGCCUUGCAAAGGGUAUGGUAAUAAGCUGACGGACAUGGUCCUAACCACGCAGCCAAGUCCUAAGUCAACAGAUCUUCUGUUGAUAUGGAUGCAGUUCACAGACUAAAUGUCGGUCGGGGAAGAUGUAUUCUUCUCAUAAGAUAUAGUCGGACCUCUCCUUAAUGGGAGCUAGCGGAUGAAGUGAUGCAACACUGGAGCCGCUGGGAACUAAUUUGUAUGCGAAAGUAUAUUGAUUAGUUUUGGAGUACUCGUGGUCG
# condition info: 37 °C
Provide the recorded self-splicing fitness (ln) for the entries that follow.
// no unit string in output, number only

What the record says about CUCAAGCAAUAUUACGUGAG : self-splicing fitness (ln) is -3.3

sequence UAUGAGCAAUAUUACGGAGG , self-splicing fitness (ln) observed: -2.53

Input GUCAAGCAAUAUUACGGGAG . Output self-splicing fitness (ln): -1.07

Per the records, this sequence ( UAUUAGCAAUAUUACGAGUG ) has self-splicing fitness (ln) equal to 0.196

Memo: GUAGAGCAAUAUUACGCACC , reported self-splicing fitness (ln): -0.709

The sequence listed as GCGUAGCAAUAUUACGCACU shows self-splicing fitness (ln) equal to 0.255

GET /value?item= CUCAAGCAAUAUUACGUGAC &field=self-splicing fitness (ln) returns -0.92

For ACGCAGCAAUAUUACGUUUU the sequence record lists self-splicing fitness (ln) as -2.11

Memo: GAUUAGCAAUAUUACGAGGA , reported self-splicing fitness (ln): -2.08

Record UUUAAGCAAUAUUACGCCGA . Reported self-splicing fitness (ln): 0.0683

Per the records, this sequence ( ACCCAGCAAUAUUACGUUCA ) has self-splicing fitness (ln) equal to -0.811

Measured self-splicing fitness (ln), UUGUAGCAAUAUUACGUUGA : -0.294

self-splicing fitness (ln) in this record for GUCCAGCAAUAUUACGUUCG : -0.749

Documented self-splicing fitness (ln) of CGCAAGCAAUAUUACGGCUC : -1.43

// self-splicing fitness (ln) value for CUCGAGCAAUAUUACGCUCA : -2.15

Lab book: self-splicing fitness (ln) of UAACAGCAAUAUUACGACUA noted as -0.212

----------
Would you kindly list self-splicing fitness (ln) for each of these sequences?
# measurement protocol: self-splicing fitness, log relative to wild type (ln ratio); higher = more splicing; Tetrahymena group I intron in knt gene, E. coli kanamycin selection, DiMSum; sequences stand for … in CUCUCU…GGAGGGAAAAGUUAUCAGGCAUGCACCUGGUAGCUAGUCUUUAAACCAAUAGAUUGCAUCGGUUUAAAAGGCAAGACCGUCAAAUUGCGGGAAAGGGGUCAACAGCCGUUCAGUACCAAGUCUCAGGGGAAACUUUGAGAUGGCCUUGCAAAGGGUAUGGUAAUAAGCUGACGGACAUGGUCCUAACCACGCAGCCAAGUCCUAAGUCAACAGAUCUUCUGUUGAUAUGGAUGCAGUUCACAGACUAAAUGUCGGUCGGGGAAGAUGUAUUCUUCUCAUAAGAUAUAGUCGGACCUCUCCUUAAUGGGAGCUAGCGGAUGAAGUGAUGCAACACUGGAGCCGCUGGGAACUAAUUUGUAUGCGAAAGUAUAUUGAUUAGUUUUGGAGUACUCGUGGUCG
# condition info: 37 °C
Please reply with the number alone, leaving off any unit.

Looking up AUUAAGCAAUAUUACGCAUG , I found its self-splicing fitness (ln) recorded as -0.301

sequence CUUUAGCAAUAUUACGGGGU , self-splicing fitness (ln) observed: -2.94

Reported self-splicing fitness (ln) for CAGGAGCAAUAUUACGAUCG was 0.258

Reported self-splicing fitness (ln) of UCCCAGCAAUAUUACGCUGG : -2.62

Entry UAUUAGCAAUAUUACGAACG — recorded self-splicing fitness (ln) = 0.194

ACGAAGCAAUAUUACGGUAC yielded self-splicing fitness (ln) of -2.24

For ACUUAGCAAUAUUACGCCAA the sequence record lists self-splicing fitness (ln) as -2.17

For this sequence ( UUGGAGCAAUAUUACGACAA ), measured self-splicing fitness (ln) is -0.647

Looking up GUGAAGCAAUAUUACGGAGA , I see its self-splicing fitness (ln) listed as -1.19

// self-splicing fitness (ln) value for UAUAAGCAAUAUUACGUUAU : -2.3

Measured self-splicing fitness (ln) of CGCUAGCAAUAUUACGCUAC : -2.29

Looking up AUUAAGCAAUAUUACGAAUU , I see its self-splicing fitness (ln) listed as -1.46

Value of self-splicing fitness (ln) reported for the sequence GGCCAGCAAUAUUACGCGAG is -2.98

The sequence listed as UACUAGCAAUAUUACGCAGC shows self-splicing fitness (ln) equal to -2.08

self-splicing fitness (ln) for CAUGAGCAAUAUUACGGGUU is -3.05

Recorded result, GUCUAGCAAUAUUACGAAAU , self-splicing fitness (ln): 0.4

For UUCAAGCAAUAUUACGACUU the sequence record lists self-splicing fitness (ln) as -2.65

Query GCAGAGCAAUAUUACGUCUC yields self-splicing fitness (ln) of -2.17

Sample AAAAAGCAAUAUUACGCCUC ; self-splicing fitness (ln) observed: -1.18

The reported value for CGUCAGCAAUAUUACGUUCU in terms of self-splicing fitness (ln) is -0.462

// CUAUAGCAAUAUUACGCCCA : self-splicing fitness (ln) value = -1.7

self-splicing fitness (ln) for UUCCAGCAAUAUUACGUUGG is -2.53

// self-splicing fitness (ln) lookup, sequence = CCUGAGCAAUAUUACGUUGA , result: -3.27

Short answer for UAGCAGCAAUAUUACGGCUU : self-splicing fitness (ln) was 0.255

Measured self-splicing fitness (ln), AGACAGCAAUAUUACGAGCC : -0.798

Reported self-splicing fitness (ln) of CUUGAGCAAUAUUACGGUGG : -1.52

Memo: UGAGAGCAAUAUUACGUCGU , reported self-splicing fitness (ln): -2.64

// recorded self-splicing fitness (ln) for UUAUAGCAAUAUUACGGUAG : -0.483

self-splicing fitness (ln) reported for this sequence GUAUAGCAAUAUUACGCUGC : -0.913

self-splicing fitness (ln) reading for CAUUAGCAAUAUUACGCCAC : -2.41

Looking up GCUGAGCAAUAUUACGGGAA , I see its self-splicing fitness (ln) listed as -2.02

Entry UUAAAGCAAUAUUACGUCCG ; self-splicing fitness (ln) = 0.242

// UGCAAGCAAUAUUACGCCCG : self-splicing fitness (ln) value = 0.109

# self-splicing fitness (ln) (sequence: GAUUAGCAAUAUUACGCCAA ) is -1.91
